- targetOrSystem: T1, EsCas13d, nuclease-dead (Eubacterium siraeum, UniProt B0MS50, R295A;H300A;R849A;H854A)
- T1 sequence: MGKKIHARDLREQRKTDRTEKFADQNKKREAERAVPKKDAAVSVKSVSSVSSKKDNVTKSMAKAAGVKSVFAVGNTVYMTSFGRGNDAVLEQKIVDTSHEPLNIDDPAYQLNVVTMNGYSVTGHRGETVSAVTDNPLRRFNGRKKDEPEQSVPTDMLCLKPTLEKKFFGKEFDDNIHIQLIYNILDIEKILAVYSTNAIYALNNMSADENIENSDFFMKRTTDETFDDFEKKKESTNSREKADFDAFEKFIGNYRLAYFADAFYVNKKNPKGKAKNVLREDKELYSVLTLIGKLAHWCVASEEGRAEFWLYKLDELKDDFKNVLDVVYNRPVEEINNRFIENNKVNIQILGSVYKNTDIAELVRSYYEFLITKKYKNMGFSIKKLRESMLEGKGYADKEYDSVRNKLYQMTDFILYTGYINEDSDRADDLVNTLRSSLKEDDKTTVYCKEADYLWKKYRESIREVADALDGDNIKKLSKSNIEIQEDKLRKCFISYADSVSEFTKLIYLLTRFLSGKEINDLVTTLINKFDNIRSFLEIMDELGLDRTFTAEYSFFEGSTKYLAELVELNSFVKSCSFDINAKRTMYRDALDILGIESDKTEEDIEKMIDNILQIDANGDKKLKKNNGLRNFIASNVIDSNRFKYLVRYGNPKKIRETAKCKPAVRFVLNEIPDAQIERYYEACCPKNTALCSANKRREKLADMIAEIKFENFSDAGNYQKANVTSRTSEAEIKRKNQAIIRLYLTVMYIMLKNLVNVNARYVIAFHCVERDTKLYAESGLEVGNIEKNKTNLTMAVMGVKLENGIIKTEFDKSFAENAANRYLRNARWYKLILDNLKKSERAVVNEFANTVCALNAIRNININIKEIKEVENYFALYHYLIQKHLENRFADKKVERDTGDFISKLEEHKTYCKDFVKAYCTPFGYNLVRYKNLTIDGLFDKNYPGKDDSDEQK
- methodNotes: crRNA (strand 1, pre-loaded); Mg2+; 40 mM Tris-HCl pH 7.5, 150 mM NaCl, 6 mM MgCl2, 1 mM DTT, 0.1% Tween-20, 0.2 mg/ml BSA; 25 C; 10 min per concentration, then washed
- conditionsUsed: tags: His6-TwinStrep-SUMO cleaved; N-terminal SNAP kept (SNAP-Surface 488); label: 3' end held by stalled T7 RNA polymerase
parameterMeasured: Kd (nM)
// units = nM; emit number, no label

Guide cases for Kd, answers given:
{"binder": "target 2 MT 5'PFS ACG 3'PFS AAG (mixed) RNA 1: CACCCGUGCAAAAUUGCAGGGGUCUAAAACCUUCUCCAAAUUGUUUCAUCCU RNA 2: GGGAAUGGAUCCACAUCUACGAAUUCACGAGGAUGAAACAAUUUGGAGAAGAAGAGAUCGGAAGAGCACACGU", "reported": 9.8}
{"binder": "target 1 insA 3' of 5,insA 3' of 5 (mixed) RNA 1: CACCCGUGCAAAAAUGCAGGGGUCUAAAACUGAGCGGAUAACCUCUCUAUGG RNA 2: GGGAAUGGAUCCACAUCUACGAAUUCGUACCAUAGAGAGGUUAUCCGAACUCACCGAGAUCGGAAGAGCACACGU", "reported": 8.5}
{"binder": "target 2 MT 5'PFS GAC 3'PFS UAA (mixed) RNA 1: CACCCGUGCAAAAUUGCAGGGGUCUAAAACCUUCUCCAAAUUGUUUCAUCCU RNA 2: GGGAAUGGAUCCACAUCUACGAAUUCGACAGGAUGAAACAAUUUGGAGAAGUAAAGAUCGGAAGAGCACACGU", "reported": 9.5}
{"binder": "target 1 G5C,C6U (mixed) RNA 1: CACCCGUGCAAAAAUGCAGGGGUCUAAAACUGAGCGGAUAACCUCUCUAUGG RNA 2: GGGAAUGGAUCCACAUCUACGAAUUCGUACCAUAGAGAGGUUAUCUCCUCACCGAGAUCGGAAGAGCACACGU", "reported": 11.6}

Let us move to another entry and its Kd.
Tell me measured Kd for target 1 insA 3' of 13,insG 3' of 8 (mixed) RNA 1: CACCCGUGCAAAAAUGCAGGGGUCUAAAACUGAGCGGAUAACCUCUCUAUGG RNA 2: GGGAAUGGAUCCACAUCUACGAAUUCGUACCAUAGAGAGAGUUAUGCCGCUCACCGAGAUCGGAAGAGCACACGU please.
5.4
